assayed_system: T1, CEACAM1 (Sino Biological) (human, UniProt P13688 35-428, limits assumed)
T1 construct: may be the same as CEACAM1-HIS; also called hCEACAM1; biotinylated soluble CEACAM1
T1 sequence: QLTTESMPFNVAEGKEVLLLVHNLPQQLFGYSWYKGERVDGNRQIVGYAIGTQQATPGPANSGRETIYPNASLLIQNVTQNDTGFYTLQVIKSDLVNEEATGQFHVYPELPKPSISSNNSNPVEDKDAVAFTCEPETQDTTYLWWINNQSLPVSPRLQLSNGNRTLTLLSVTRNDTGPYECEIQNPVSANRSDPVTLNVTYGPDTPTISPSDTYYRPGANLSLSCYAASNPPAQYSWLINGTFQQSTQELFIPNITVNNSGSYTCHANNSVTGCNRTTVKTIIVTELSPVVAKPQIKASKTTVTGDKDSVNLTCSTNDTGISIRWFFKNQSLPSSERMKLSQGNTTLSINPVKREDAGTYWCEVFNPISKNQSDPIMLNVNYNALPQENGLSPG
method: SPR single-cycle
Parameter log10 Kd: see the listing below.
A difference of one corresponds to tenfold Kd; all values are log10 with Kd in nM.

Examples from the recorded data:
| binder | log10 Kd |
| --- | --- |
| He1/L19 (antibody, IgG4, V domains shown, IgG4 S241P, kappa) VH: EVQLLESGGGLVQPGGSLRLSCAASGFSFSDYYLYWVRQAPGKGLEWVATISVGGGQTSYADSVKGRFTISRDNSKNTLYLQMNSLRAEDTAMYYCTRGLYYGPSWFAYWGQGTLVTVSS VL: DIVMTQSPDSLAVSLGERATINCKSSQSLLNSANQKNYLAWYQQKPGQPPKLLIYFASTRESGVPDRFSGSGSGTDFTLTISSLQAEDVAVYYCQSHIYPNFTFGGGTKVEIK | 3.00 |
| He3/L17 (antibody, IgG4, V domains shown, IgG4 S241P, kappa) VH: EVQLLESGGGLVQPGGSLRLSCAASGFSFSDYYLYWVRQAPGKGLEWVATISVGGGQTSYADSVKGRFTISRDNSKNTLYLQMNSLRAEDTAMYYCTRALTYGPAWLAYWGQGTLVTVSS VL: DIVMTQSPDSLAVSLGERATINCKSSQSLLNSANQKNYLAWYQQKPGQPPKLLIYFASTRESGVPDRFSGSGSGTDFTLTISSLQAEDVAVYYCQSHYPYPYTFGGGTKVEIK | 1.92 |
| He4/L17 (antibody, IgG4, V domains shown, IgG4 S241P, kappa) VH: EVQLLESGGGLVQPGGSLRLSCAASGFSFSDYYLYWVRQAPGKGLEWVATISVGGGQTSYADSVKGRFTISRDNSKNTLYLQMNSLRAEDTAMYYCTRALYYGPAWFAYWGQGTLVTVSS VL: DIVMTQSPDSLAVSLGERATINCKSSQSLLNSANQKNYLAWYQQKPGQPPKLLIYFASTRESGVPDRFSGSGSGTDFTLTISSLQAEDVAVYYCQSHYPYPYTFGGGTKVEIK | 1.79 |

Give the reported value of log10 Kd for this record: He6/L5 (antibody, IgG4, V domains shown, IgG4 S241P, kappa) VH: EVQLLESGGGLVQPGGSLRLSCAASGFSFSDYYLYWVRQAPGKGLEWVATISVGGGQTSYADSVKGRFTISRDNSKNTLYLQMNSLRAEDTAMYYCARARTYGPAWFAYWGQGTLVTVSS VL: DIVMTQSPDSLAVSLGERATINCKSSQSLLNSANQKNYLAWYQQKPGQPPKLLIYFASTRESGVPDRFSGSGSGTDFTLTISSLQAEDVAVYYCQSHYPFAFTFGGGTKVEIK
1.92

Give the reported value of log10 Kd for this record: He13/L19 (antibody, IgG4, V domains shown, IgG4 S241P, kappa) VH: EVQLLESGGGLVQPGGSLRLSCAASGFSFSDYYLYWVRQAPGKGLEWVATISVGGGQTSYADSVKGRFTISRDNSKNTLYLQMNSLRAEDTAMYYCTRGLYYGPSWLAYWGQGTLVTVSS VL: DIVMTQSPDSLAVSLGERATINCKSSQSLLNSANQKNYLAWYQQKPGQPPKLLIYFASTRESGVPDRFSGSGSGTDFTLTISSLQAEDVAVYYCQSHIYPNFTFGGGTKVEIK
2.11
